# Tested Target: Syk kinase (Homo sapiens, UniProt P43405)
pIC50: −log10 of the molar value.
Label Met when pIC50 >= 7; otherwise Not met.

{"Compound": "Cc1nccn1CCS(=O)(=O)N1CCO[C@H](COc2nc(-c3ccc(N(C)C)cc3)cc3nccnc23)C1 [Compound 101]", "Category Label": "Met"}
{"Compound": "CC1CN(c2ccc(-c3cc4nccnc4c(OC[C@@H]4CN(S(C)(=O)=O)CCO4)n3)cc2)CCO1 (some centres unmarked) [Compound 18]", "Category Label": "Met"}
{"Compound": "CC(=O)N1CCO[C@H](COc2nc(-c3ccc4c(c3)COC4(C)C)cc3nccnc23)C1 [Compound 297]", "Category Label": "Met"}
{"Compound": "CNC(=O)N1CCOC(C(C)Oc2nc(-c3ccc(N(C)C)cc3)cc3nccnc23)C1 (centres unmarked) [Compound 239]", "Category Label": "Not met"}
{"Compound": "CS(=O)(=O)N1CCO[C@H](COc2nc(-c3ccc(F)cc3)cc3nccnc23)C1 [Compound 44]", "Category Label": "Not met"}
{"Compound": "CC(C)(O)c1ccc(-c2cc3nccnc3c(OC[C@@H]3CN(S(N)(=O)=O)CCO3)n2)cc1 [Compound 263]", "Category Label": "Met"}
